system: SEM cells; experiment: cell viability relative to DMSO control; higher = less cytotoxic; settings: HPLM + 10% dialyzed FBS; 48 h; 46.1 µM
result_type: cell viability

Worked cases, answers included:
{"columns": ["compound", "obs_value"],
 "data": [
  ["CN1C(=O)/C(=C(NC2=CC=C(I)C=C2F)\\C3=C1\\N=C/N(C[C@@H](O)CO)C3=O)F", "51.3%"],
  ["CC(C)(N)c1ccc(-c2nc3ccccc3nc2-c2ccccc2)cc1", "3.57%"],
  ["O=C(/C=C/c1ccc(/C=C/C(=O)Nc2ccc(C3=NCCN3)cc2)cc1)Nc1ccc(C2=NCCN2)cc1", "115%"],
  ["Cc1cc(Nc2ncc3c(n2)N(C)C(=O)N(c2cc(NC(=O)c4cccc(C(F)(F)F)c4)ccc2C)C3)n(C)n1", "3.72%"],
  ["COc1c(Cl)cc2c([nH]c3cnccc32)c1NC(=O)c1cccnc1C", "84.8%"],
  ["CC(C(C)N1CC(=O)NC(=O)C1)N1CC(=O)NC(=O)C1 (stereo not drawn)", "40.5%"],
  ["CC(=O)OCC(=O)[C@@]1(O)CC[C@H]2[C@@H]3CCC/4=C/C(=O)CC[C@]4(C)[C@H]3C(=O)C[C@]12C", "118%"]
]}

Provide the documented cell viability with SEM cells as the system for Cc1ccc(C(=O)Nc2cccc(C(F)(F)F)c2)cc1Nc1nc(-c2cccnc2)nc2c1cnn2C 53.4%
